assay: RP, Waters XBridge C18, 50 × 2.1 mm, 3.5 µm, 30 °C, 0.2 mL/min, estimated dead time 0.55 min; A: water + 0.1% formic acid, pH 3; B: methanol + 0.1% formic acid, pH 3; gradient (min/%B) 0/10 4/50 17/95 25/95 25.1/10 30/10; settings: stereoisomer not certain

{"compound": "CC(=O)Nc1ccc(O)cc1 [Paracetamol]", "unitOfMeasurement": "min", "LC retention time": 2.2}
{"compound": "CN1CCC23c4c5ccc(O)c4OC2C(O)C=CC3C1C5 (stereo not drawn) [Morphine]", "unitOfMeasurement": "min", "LC retention time": 1.1}
{"compound": "CC(=O)Nc1c(I)c(C(=O)O)c(I)c(C(=O)NCCO)c1I [Ioxitalamic acid]", "unitOfMeasurement": "min", "LC retention time": 1.3}
{"compound": "CCN(CC)C(=O)C(C)Oc1cccc2ccccc12 (stereo not drawn) [Napropamid]", "unitOfMeasurement": "min", "LC retention time": 11.7}
{"compound": "FC(F)(F)c1cccc(N2CCNCC2)c1 [1-(3-(Trifluoromethyl)phenyl)piperazine]", "unitOfMeasurement": "min", "LC retention time": 5.9}
{"compound": "COC(=O)c1sccc1S(=O)(=O)NC(=O)Nc1nc(C)nc(OC)n1 [Thifensulfuron-methyl]", "unitOfMeasurement": "min", "LC retention time": 7.2}
{"compound": "O=C(O)C(F)(F)C(F)(F)C(F)(F)C(F)(F)C(F)(F)C(F)(F)C(F)(F)C(F)(F)C(F)(F)C(F)(F)F [Perfluoroundecanoic acid]", "unitOfMeasurement": "min", "LC retention time": 16.3}
{"compound": "CCCCc1oc2ccc(NS(C)(=O)=O)cc2c1C(=O)c1ccc(OCCCN(CCCC)CCCC)cc1 [Dronedarone]", "unitOfMeasurement": "min", "LC retention time": 11.5}

###

test: RP, Waters XBridge C18, 50 × 2.1 mm, 3.5 µm, 30 °C, 0.2 mL/min, estimated dead time 0.55 min; A: water + 0.1% formic acid, pH 3; B: methanol + 0.1% formic acid, pH 3; gradient (min/%B) 0/10 4/50 17/95 25/95 25.1/10 30/10; details: stereoisomer not certain
Attribute: LC retention time

{"compound": "CN(C)C(=O)Nc1ccc(Cl)c(Cl)c1 [Diuron]", "LC retention time (min)": 8.9}
{"compound": "CCOc1nc2cccc(C(=O)O)c2n1Cc1ccc(-c2ccccc2-c2nn[nH]n2)cc1 [Candesartan]", "LC retention time (min)": 9.3}
{"compound": "CN(CC(=O)O)S(=O)(=O)C(F)(F)C(F)(F)C(F)(F)C(F)(F)C(F)(F)C(F)(F)C(F)(F)C(F)(F)F [N-methylperfluorooctane sulfonamidoacetic acid]", "LC retention time (min)": 16.5}
{"compound": "CCCCc1ncc(C=C(Cc2cccs2)C(=O)O)n1Cc1ccc(C(=O)O)cc1 [Eprosartan]", "LC retention time (min)": 6.3}

###

experiment: RP, Waters XBridge C18, 50 × 2.1 mm, 3.5 µm, 30 °C, 0.2 mL/min, estimated dead time 0.55 min; A: water + 0.1% formic acid, pH 3; B: methanol + 0.1% formic acid, pH 3; gradient (min/%B) 0/10 4/50 17/95 25/95 25.1/10 30/10; conditions: stereoisomer not certain
Attribute: LC retention time

{"compound": "CS(=O)(=O)c1ccc(C(=O)C2C(=O)CCCC2=O)c([N+](=O)[O-])c1", "LC retention time (min)": 6.2}
{"compound": "COc1c(Cl)ccc(Cl)c1C(=O)O", "LC retention time (min)": 7}
{"compound": "OC(Cn1cncn1)(Cn1cncn1)c1ccc(F)cc1F", "LC retention time (min)": 5.3}
{"compound": "CC12C=CC(=O)C=C1CCC1C2C(O)CC2(C)C1CCC2(O)C(=O)CO (stereo not given)", "LC retention time (min)": 8}
{"compound": "Cc1cc(Cl)ccc1OCCCC(=O)O", "LC retention time (min)": 11.9}

###

assay: RP, Waters XBridge C18, 50 × 2.1 mm, 3.5 µm, 30 °C, 0.2 mL/min, estimated dead time 0.55 min; A: water + 0.1% formic acid, pH 3; B: methanol + 0.1% formic acid, pH 3; gradient (min/%B) 0/10 4/50 17/95 25/95 25.1/10 30/10; conditions: stereoisomer not certain
Record Condition met whenever LC retention time is at 6 min or higher; record Condition not met when lower.

{"compound": "Cc1ccc2n[nH]nc2c1 [5-Methyl-1H-benzotriazole]", "className": "Condition not met"}
{"compound": "Nc1cn[nH]c(=O)c1Cl [Chloridazone-desphenyl]", "className": "Condition not met"}
{"compound": "Cc1cccc(C)c1N(Cn1cccn1)C(=O)CS(=O)(=O)O [Metazachlor ESA]", "className": "Condition not met"}
{"compound": "O=c1[nH]sc2ccccc12 [Benzisothiazolone (BIT)]", "className": "Condition not met"}
{"compound": "N#Cc1cc(I)c(O)c(I)c1 [Ioxynil]", "className": "Condition met"}

###

test: RP, Waters XBridge C18, 50 × 2.1 mm, 3.5 µm, 30 °C, 0.2 mL/min, estimated dead time 0.55 min; A: water + 0.1% formic acid, pH 3; B: methanol + 0.1% formic acid, pH 3; gradient (min/%B) 0/10 4/50 17/95 25/95 25.1/10 30/10; details: stereoisomer not certain

{"compound": "O=C(O)C(F)(F)C(F)(F)C(F)(F)C(F)(F)C(F)(F)F [Perfluorohexanoic acid]", "unitOfMeasurement": "min", "LC retention time": 9.3}
{"compound": "N#Cc1nn(-c2c(Cl)cc(C(F)(F)F)cc2Cl)c(N)c1S(=O)(=O)C(F)(F)F [Fipronil-sulfone]", "unitOfMeasurement": "min", "LC retention time": 13.5}
{"compound": "CCC(=O)C(CC(C)N(C)C)(c1ccccc1)c1ccccc1 (stereo not drawn) [Methadone]", "unitOfMeasurement": "min", "LC retention time": 8.4}

###

Attribute: LC retention time
assay: RP, Waters XBridge C18, 50 × 2.1 mm, 3.5 µm, 30 °C, 0.2 mL/min, estimated dead time 0.55 min; A: water + 0.1% formic acid, pH 3; B: methanol + 0.1% formic acid, pH 3; gradient (min/%B) 0/10 4/50 17/95 25/95 25.1/10 30/10; conditions: stereoisomer not certain

{"compound": "CC(Oc1ccc(Cl)cc1Cl)C(=O)O (stereo unspecified)", "LC retention time / min": 10.7}
{"compound": "Cc1cc(=O)n(-c2ccccc2)n1C [Antipyrine]", "LC retention time / min": 4.6}
{"compound": "CNC(=O)ON=C(C)SC", "LC retention time / min": 3.6}
{"compound": "Nc1ccc(S(=O)(=O)Nc2nccs2)cc1", "LC retention time / min": 2.8}
{"compound": "CC(C)(C)NCC(O)c1ccc(O)c(CO)c1 (stereo unspecified)", "LC retention time / min": 2}
{"compound": "Cn1c(=O)c2c(ncn2C)n(C)c1=O", "LC retention time / min": 4}

###

experiment: RP, Waters XBridge C18, 50 × 2.1 mm, 3.5 µm, 30 °C, 0.2 mL/min, estimated dead time 0.55 min; A: water + 0.1% formic acid, pH 3; B: methanol + 0.1% formic acid, pH 3; gradient (min/%B) 0/10 4/50 17/95 25/95 25.1/10 30/10; settings: stereoisomer not certain
Doc: threshold 8 min (exclusive). Items with LC retention time beneath it return true; others return false.

{"molecule": "CC(C)N(C(=O)CS(=O)(=O)O)c1ccc(F)cc1", "className": "true"}
{"molecule": "CCNc1nc(Cl)nc(NC(C)(C)C)n1", "className": "false"}
{"molecule": "COC(=O)c1ccccc1S(=O)(=O)NC(=O)Nc1nc(C)nc(OC)n1", "className": "true"}
{"molecule": "CSc1nc(NC2CC2)nc(NC(C)(C)C)n1", "className": "false"}
{"molecule": "CC(C)N(C(=O)C(=O)O)c1ccc(F)cc1", "className": "true"}
{"molecule": "CCNc1nc(NC(C)C)nc(OC)n1", "className": "true"}
{"molecule": "CCCC1CC(C(=O)NC(C(C)Cl)C2OC(SC)C(O)C(O)C2O)N(C)C1 (stereo not given)", "className": "true"}
{"molecule": "N#Cc1cc(Br)c(O)c(Br)c1", "className": "false"}
{"molecule": "CNCCC(Oc1ccc(C(F)(F)F)cc1)c1ccccc1 (stereo not given)", "className": "false"}
{"molecule": "CCCN(CCOc1c(Cl)cc(Cl)cc1Cl)C(=O)n1ccnc1", "className": "false"}

###

test: RP, Waters XBridge C18, 50 × 2.1 mm, 3.5 µm, 30 °C, 0.2 mL/min, estimated dead time 0.55 min; A: water + 0.1% formic acid, pH 3; B: methanol + 0.1% formic acid, pH 3; gradient (min/%B) 0/10 4/50 17/95 25/95 25.1/10 30/10; conditions: stereoisomer not certain
Record condition met whenever LC retention time is at 6 min or higher; record condition not met when lower.

{"molecule": "CN1CCN(C2=Nc3cc(Cl)ccc3Nc3ccccc32)CC1", "className": "condition met"}
{"molecule": "Cc1ccc(NS(=O)(=O)N(C)C)cc1 [N,N-Dimethyl-N'-p-tolylsulphamide]", "className": "condition met"}
{"molecule": "CNC(C)Cc1ccccc1 (centres undefined)", "className": "condition not met"}
{"molecule": "Cc1c(N)c(=O)n(-c2ccccc2)n1C [4-Aminoantipyrine]", "className": "condition not met"}
{"molecule": "O=C(Nc1ccc(F)cc1F)c1cccnc1Oc1cccc(C(F)(F)F)c1", "className": "condition met"}
{"molecule": "N#Cc1nn(-c2c(Cl)cc(C(F)(F)F)cc2Cl)c(N)c1SC(F)(F)F [Fipronil-sulfide]", "className": "condition met"}
{"molecule": "Cc1cccc(C)c1N(Cn1cccn1)C(=O)C(=O)O", "className": "condition not met"}
{"molecule": "CCOC(=O)NCCOc1ccc(Oc2ccccc2)cc1", "className": "condition met"}
{"molecule": "CC(C)Nc1nc(N)[nH]c(=O)n1 [Atrazine-desethyl-2-hydroxy]", "className": "condition not met"}
